- Test system: SF-295
- experiment.summary: NCI tumour cell line growth inhibition, 48 h
Active and inactive are the calls of the source. Rule as the data show it: active = GI50 up to about 1.1 µM and inactive = higher.
Reply using exactly one outcome from t for active, f for inactive

# example entries with known answers
>>> label_class("Cc1sc(N)c(S(=O)(=O)c2ccccc2)c1C")
"f"
>>> label_class("CCCCc1c(O)nc(Nc2nc3ccccc3[nH]2)[nH]c1=O")
"f"
>>> label_class("CCCC(=O)Nc1cc(/C=C/C(=O)N2CC(CCl)c3c2cc(OCc2ccccc2)c2[nH]cc(C)c32)n(C)c1 (stereo not given)")
"t"
>>> label_class("COc1ccc(/C=C/c2cc(OC)c(OC)c(OC)c2)cc1O[Si](C)(C)C(C)(C)C")
"f"
>>> label_class("CCN(CC)C1=Nc2ccccc2-n2ccnc2C1")
"f"

### Prompt Hey, what did the test say about CC(=O)n1nc(-c2ccccc2)n(/N=C/c2ccc([N+](=O)[O-])o2)c1=O ?
### Response f

### Prompt Okay, and COC(=O)c1c(-c2ccccc2)c2sc3ccccc3n2c1N ?
### Response f

### Prompt Can you handle CCc1cc2c(cc1O)CC[C@@H]1[C@@H]2CC[C@]2(C)[C@@H](O)CC[C@@H]12 next?
### Response f

### Prompt Same question, Cc1cccc2c(N)c3cccc(C(=O)NCC[N+](C)(C)Cc4sccc4[N+](=O)[O-])c3nc12 this time
### Response f

### Prompt What would you report for CSC(SC)(C(=O)O)c1cc(-c2c(Cl)cccc2Cl)no1 ?
### Response f
